inhibition values for the compounds below.
molecular target: Prostaglandin G/H synthase 2 (Homo sapiens); conditions: Blood; at 1 µM

Field: example entries. Status: answers known.
>>> df
                                  cpdsmiles                            targetorsystem  recordedvalue
0  Cc1ccc(-c2c(Cl)ncn2-c2ccc(S(N)(=O)=O)cc2)cc1  Prostaglandin G/H synthase 2 (Homo sapiens)          76.1%
1  COc1ccc(-c2c(Cl)ncn2-c2ccc(S(C)(=O)=O)cc2)cc1Cl  Prostaglandin G/H synthase 2 (Homo sapiens)          84.1%
2  COc1ccc(-c2c(Cl)ncn2-c2ccc(S(C)(=O)=O)cc2)cc1F  Prostaglandin G/H synthase 2 (Homo sapiens)            79%

*Q* Query: inhibition; subject: `COc1cc(-c2c(Cl)ncn2-c2ccc(S(C)(=O)=O)cc2)ccc1F`
*A* 97.4%

*Q* Query: inhibition; subject: `NS(=O)(=O)c1ccc(-n2cnc(Cl)c2-c2ccc(Cl)nc2)cc1`
*A* 19.6%

*Q* Query: inhibition; subject: `CS(=O)(=O)c1ccc(-n2cnc(Cl)c2-c2ccncc2)cc1`
*A* 54.5%

*Q* Query: inhibition; subject: `CN(C)c1ccc(-c2c(Cl)ncn2-c2ccc(S(C)(=O)=O)cc2)cc1Cl`
*A* 64.6%

*Q* Query: inhibition; subject: `CS(=O)(=O)c1ccc(-n2cnc(Cl)c2-c2cccnc2)cc1`
*A* 74.9%

*Q* Query: inhibition; subject: `CS(=O)(=O)c1ccc(-c2cnc(Br)n2-c2ccc(F)cc2)cc1`
*A* 56.2%

*Q* Query: inhibition; subject: `CS(=O)(=O)c1ccc(-n2cnc(Cl)c2-c2ccc(Cl)cc2)cc1`
*A* 88.4%

*Q* Query: inhibition; subject: `CCOc1ccc(-c2c(Cl)ncn2-c2ccc(S(C)(=O)=O)cc2)cc1Cl`
*A* 47.7%

*Q* Query: inhibition; subject: `CS(=O)(=O)c1ccc(C2=C(c3ccccc3)C(=O)OC2)cc1`
*A* 84.1%

*Q* Query: inhibition; subject: `COc1c(Cl)cc(-c2c(Cl)ncn2-c2ccc(S(C)(=O)=O)cc2)cc1Cl`
*A* 37.3%

*Q* Query: inhibition; subject: `CS(=O)(=O)c1ccc(-n2cnc(Cl)c2-c2cccc(F)c2)cc1`
*A* 51.9%

*Q* Query: inhibition; subject: `CCCc1ccc(-c2c(Cl)ncn2-c2ccc(S(C)(=O)=O)cc2)cc1`
*A* 60%

*Q* Query: inhibition; subject: `CS(=O)(=O)c1ccc(-c2cnc(Cl)n2-c2ccc(F)cc2)cc1`
*A* 85.6%

*Q* Query: inhibition; subject: `CCOc1ccc(-c2c(Cl)ncn2-c2ccc(S(N)(=O)=O)cc2)cc1F`
*A* 57%

*Q* Query: inhibition; subject: `CS(=O)(=O)c1ccc(-n2cnc(Cl)c2-c2ccc3c(c2)OCO3)cc1`
*A* 60.5%

*Q* Query: inhibition; subject: `COc1ccc(-c2c(Cl)ncn2-c2ccc(S(C)(=O)=O)cc2)cc1C`
*A* 100%

*Q* Query: inhibition; subject: `COc1cc(-c2c(Cl)ncn2-c2ccc(S(C)(=O)=O)cc2)ccc1C`
*A* 77.1%

*Q* Query: inhibition; subject: `CCOc1ccc(-c2c(Cl)ncn2-c2ccc(S(N)(=O)=O)cc2)cc1Cl`
*A* 26.8%

*Q* Query: inhibition; subject: `Cc1ncn(-c2ccc(S(C)(=O)=O)cc2)c1-c1ccc(F)cc1`
*A* 34.5%
